experiment: Caco-2 permeability assay (CacoReady kit); type: in vitro ADME; conditions: human, Caco-2, Caco-2 barrier, CacoReady kit; above 1×10^−6 cm/s classified as permeable
I'd appreciate it if you could supply Papp values for the items below.

COMPOUND	Papp
CCc1c(C(=O)N[C@@H](CCC(=O)C(=O)NC2CCCCC2)C(=O)Nc2cccn(CC(=O)NC34CC(C3)C4)c2=O)oc2ccccc12	1 to 10 ×10⁻⁶ cm/s

# return Papp for each item in the list
1. Cn1nccc1C(=O)N[C@@H](CCC(=O)C(N)=O)C(=O)Nc1cccn(CC(=O)NC2C3CC4CC(C3)CC2C4)c1=O (stereo partly shown)
2. CNC(=O)C(=O)CC[C@H](NC(=O)c1ccc2occc2c1)C(=O)Nc1cccn(CC(=O)NC2C3CC4CC2CC(NC(C)=O)(C4)C3)c1=O (stereo partly shown)
3. CNC(=O)C(=O)CC[C@H](NC(=O)c1c(C)nc2sccn12)C(=O)Nc1cccn(CC(=O)NC2C3CC4CC(C3)CC2C4)c1=O (stereo partly shown)
4. CNC(=O)C(=O)CC[C@H](NC(=O)c1csc(Cl)c1)C(=O)Nc1cccn(CC(=O)NC2C3CC4CC(C3)CC2C4)c1=O (stereo partly shown)
5. CNC(=O)C(=O)CC[C@H](NC(=O)c1ncns1)C(=O)Nc1cccn(CC(=O)NC23CC(C2)C3)c1=O
6. CNC(=O)C(=O)CC[C@H](NC(=O)c1cc2ccc(N(C)C)cc2o1)C(=O)Nc1cccn(CC(=O)NC23CC(C2)C3)c1=O
7. CNC(=O)C(=O)CC[C@H](NC(=O)c1cnnn1C)C(=O)Nc1cccn(CC(=O)N[C@@H]2C[C@@H]3CC[C@H]2C3)c1=O
8. CNC(=O)C(=O)CC[C@H](NC(=O)c1scc(C)c1Cl)C(=O)Nc1cccn(CC(=O)NC2C3CC4CC(C3)CC2C4)c1=O (stereo partly shown)

OUT:
1: < 1 ×10⁻⁶ cm/s; 2: < 1 ×10⁻⁶ cm/s; 3: < 1 ×10⁻⁶ cm/s; 4: 1 to 10 ×10⁻⁶ cm/s; 5: < 1 ×10⁻⁶ cm/s; 6: < 1 ×10⁻⁶ cm/s; 7: < 1 ×10⁻⁶ cm/s; 8: 1 to 10 ×10⁻⁶ cm/s

Could you tell me Papp for each of these compounds? They are listed below.
1. CNC(=O)C(=O)CC[C@H](NC(=O)c1snnc1C1CC1)C(=O)Nc1cccn(CC(=O)NC23CC(C2)C3)c1=O
2. CNC(=O)C(=O)CC[C@H](NC(=O)c1cnnn1C)C(=O)Nc1cccn(CC(=O)NC2C3CC4CC(C3)CC2C4)c1=O (stereo partly shown)
3. Cc1c(C(=O)N[C@@H](CCC(=O)C(N)=O)C(=O)Nc2cccn(CC(=O)NC3C4CC5CC(C4)CC3C5)c2=O)oc2ccccc12 (stereo partly shown)

OUT:
1. < 1 ×10⁻⁶ cm/s
2. 1 to 10 ×10⁻⁶ cm/s
3. 1 to 10 ×10⁻⁶ cm/s

IN: Quick one: give measured Papp for CNC(=O)C(=O)CC[C@H](NC(=O)c1oc2ccccc2c1C)C(=O)Nc1cccn(CC(=O)NC2C3CC4CC2CC(O)(C4)C3)c1=O (stereo partly shown)
OUT: < 1 ×10⁻⁶ cm/s

* * *

assay: Caco-2 permeability assay (CacoReady kit); assay type: in vitro ADME; details: human, Caco-2, Caco-2 barrier, CacoReady kit; above 1×10^−6 cm/s classified as permeable
PROPERTY_MEASURED: Papp

COMPOUND	PROPERTY_MEASURED	VALUE_REPORTED
CNC(=O)C(=O)CC[C@H](NC(=O)c1cc(Cl)sc1Cl)C(=O)Nc1cccn(CC(=O)N[C@H]2C[C@H]3CC[C@]2(C)C3(C)C)c1=O [II-160]	Papp	1 to 10 ×10⁻⁶ cm/s
CNC(=O)C(=O)CC[C@H](NC(=O)c1cc(Cl)sc1Cl)C(=O)Nc1cccn(CC(=O)N[C@@H]2C[C@H]3CC[C@@H]2C3)c1=O [II-128]	Papp	1 to 10 ×10⁻⁶ cm/s
CNC(=O)C(=O)CC[C@H](NC(=O)c1cc(C)oc1C)C(=O)Nc1cccn(CC(=O)NC2C3CC4CC(C3)CC2C4)c1=O (stereo partly shown) [II-37]	Papp	1 to 10 ×10⁻⁶ cm/s
Cc1nc(C(F)(F)F)sc1C(=O)N[C@@H](CCC(=O)C(N)=O)C(=O)Nc1cccn(CC(=O)NC2C3CC4CC(C3)CC2C4)c1=O (stereo partly shown) [II-126]	Papp	1 to 10 ×10⁻⁶ cm/s
CNC(=O)C(=O)CC[C@H](NC(=O)c1cnsn1)C(=O)Nc1cccn(CC(=O)NC2C3CC4CC(C3)CC2C4)c1=O (stereo partly shown) [II-142]	Papp	< 1 ×10⁻⁶ cm/s
CNC(=O)C(=O)CC[C@H](NC(=O)c1snnc1C(C)C)C(=O)Nc1cccn(CC(=O)NC2C3CC4CC(C3)CC2C4)c1=O (stereo partly shown) [II-203]	Papp	< 1 ×10⁻⁶ cm/s
CNC(=O)C(=O)CC[C@H](NC(=O)c1sc(C(F)(F)F)nc1C)C(=O)Nc1cccn(CC(=O)N[C@@H]2C[C@H]3CC[C@@H]2C3)c1=O [II-129]	Papp	< 1 ×10⁻⁶ cm/s
CNC(=O)C(=O)CC[C@H](NC(=O)c1cc(Cl)sc1Cl)C(=O)Nc1cccn(CC(=O)NC2C3CC4CC(C3)CC2C4)c1=O (stereo partly shown) [II-28]	Papp	1 to 10 ×10⁻⁶ cm/s
CNC(=O)C(=O)CC[C@H](NC(=O)c1sc(Br)nc1C)C(=O)Nc1cccn(CC(=O)NC2C3CC4CC(C3)CC2C4)c1=O (stereo partly shown) [II-14]	Papp	1 to 10 ×10⁻⁶ cm/s
CNC(=O)C(=O)CC[C@H](NC(=O)[C@@H]1CCCN1C(C)=O)C(=O)Nc1cccn(CC(=O)NC2C3CC4CC(C3)CC2C4)c1=O (stereo partly shown) [II-50]	Papp	< 1 ×10⁻⁶ cm/s

List reported Papp for each of these compounds:
1. O=C(Cn1cccc(NC(=O)[C@H](CCC(=O)C(=O)NC2CC2)NC(=O)c2cc3ccccc3o2)c1=O)NC1C2CC3CC(C2)CC1C3 (stereo partly shown) [II-121]
2. CNC(=O)C(=O)CC[C@H](NC(=O)c1nncs1)C(=O)Nc1cccn(CC(=O)NC23CC(C2)C3)c1=O [II-200]

OUT:
1 to 10 ×10⁻⁶ cm/s
< 1 ×10⁻⁶ cm/s

IN: Given CNC(=O)C(=O)CC[C@H](NC(=O)c1nccc2cnccc12)C(=O)Nc1cccn(CC(=O)NC23CCC(C2)C3)c1=O [II-188] , respond with its Papp.
OUT: < 1 ×10⁻⁶ cm/s

* * *

Test: logD by shake flask method (octanol / PBS pH 7.4, HPLC)
Format: physicochemical
Conditions: octanol / PBS pH 7.4, shake flask
Experimental: In order to classify the inventive compounds according to their lipophilicity, LogD values (distribution coefficient) were determined by means of the well-established shake flask method, measuring the partition of a compound between an octanol and phosphate-buffered saline (PBS, pH 7.4) by HPLC. The LogD is pH dependent and is a “predictor” for in-vivo properties. LogD combines lipophilicity (intrinsic structural property of the molecule, logP) and ionizability (pKa). […]
PROPERTY_MEASURED: logD

MOLECULE	VALUE_REPORTED
CNC(=O)C(=O)CC[C@H](NC(=O)c1cnc(NC(C)=O)s1)C(=O)Nc1cccn(CC(=O)NC23CC(C2)C3)c1=O	< 1
CNC(=O)C(=O)CC[C@H](NC(=O)c1snnc1CO)C(=O)Nc1cccn(CC(=O)NC2C3CC4CC(C3)CC2C4)c1=O (stereo partly drawn)	< 1
CNC(=O)C(=O)CC[C@H](NC(=O)C1Cc2ccccc2C1)C(=O)Nc1cccn(CC(=O)NC2C3CC4CC(C3)CC2C4)c1=O (stereo partly drawn)	1 to 3
CNC(=O)C(=O)CC[C@H](NC(=O)c1cc(Br)cs1)C(=O)Nc1cccn(CC(=O)NC2C3CC4CC(C3)CC2C4)c1=O (stereo partly drawn)	3 to 5
CNC(=O)C(=O)CC[C@H](NC(=O)c1cc(Cl)sc1Cl)C(=O)Nc1cccn(CC(=O)N[C@@H]2C[C@H]3CC[C@@H]2C3)c1=O	1 to 3

IN: Respond only with logD recorded for CNC(=O)C(=O)CC[C@H](NC(=O)c1sc(-c2ccccc2)nc1C)C(=O)Nc1cccn(CC(=O)NC2C3CC4CC(C3)CC2C4)c1=O (stereo partly drawn)
OUT: 3 to 5

* * *

assay: Single-dose oral pharmacokinetic profile in mice; assay type: in vivo; conditions: mouse; male C57BL/6 mice, single oral dose 200 mg/kg, plasma; read-out: Cmax
Assign Cmax to each entry below.
Please format your answer as a value with the unit trailing.

Worked cases, answers included:
COMPOUND	Cmax
CNC(=O)C(=O)CC[C@H](NC(=O)c1oc2ccccc2c1C)C(=O)Nc1cccn(CC(=O)NC2C3CC4CC(C3)CC2C4)c1=O (stereo partly drawn)	21.6 µM
CNC(=O)C(=O)CC[C@H](NC(=O)c1sc(C(F)(F)F)nc1C)C(=O)Nc1cccn(CC(=O)NC2C3CC4CC(C3)CC2C4)c1=O (stereo partly drawn)	48.6 µM

Okay, next one:
IN: Identify measured Cmax corresponding to CNC(=O)C(=O)CC[C@H](NC(=O)c1cc(Cl)sc1Cl)C(=O)Nc1cccn(CC(=O)NC2C3CC4CC(C3)CC2C4)c1=O (stereo partly drawn)
OUT: 23.3 µM
